- Measurement context: in water, 293.15 K
Parameter solubility (mole fraction): see the listing below.
Give only the figure.

# annotated cases, reported solubility (mole fraction) shown
{"Test smiles": "Cc1ccc(NS(=O)(=O)c2ccc(N)cc2)cc1Cl", "Observed measurement": "1.26e-07"}
{"Test smiles": "Nc1ccc(S(=O)(=O)Nc2cc(Cl)ccc2Cl)cc1", "Observed measurement": "6.12e-07"}
{"Test smiles": "Nc1ccc(S(=O)(=O)Nc2ccccc2Cl)c(Cl)c1", "Observed measurement": "1.05e-07"}
{"Test smiles": "Cc1cc(N)ccc1S(=O)(=O)Nc1ccccc1[N+](=O)[O-]", "Observed measurement": "4.41e-07"}

Attention now turns to another entry.
### Prompt Look up solubility (mole fraction) for this compound: "Nc1ccc(S(=O)(=O)Nc2cc(Cl)c(Cl)cc2Cl)cc1"
### Response 2.22e-07

====

- Measurement context: in n-octanol, 303.15 K
Attribute measured: solubility (mole fraction)

# annotated cases, reported solubility (mole fraction) shown
{"Test smiles": "Cc1ccc(NS(=O)(=O)c2ccc(N)cc2)c(Cl)c1", "solubility (mole fraction)": 0.0018}
{"Test smiles": "Cc1ccc(NS(=O)(=O)c2ccc(N)cc2)cc1Cl", "solubility (mole fraction)": 0.00064}
{"Test smiles": "Cc1ccc(Cl)cc1NS(=O)(=O)c1ccc(N)cc1", "solubility (mole fraction)": 0.00221}
{"Test smiles": "Cc1cc(Cl)ccc1NS(=O)(=O)c1ccc(N)cc1", "solubility (mole fraction)": 0.00556}

### Prompt Look up solubility (mole fraction) for this molecule: "Cc1cc(N)ccc1S(=O)(=O)Nc1ccccc1[N+](=O)[O-]"
### Response 0.000247

### Prompt Note, next up: "Nc1ccc(S(=O)(=O)Nc2cc(Cl)c(Cl)cc2Cl)cc1"
### Response 0.00118

### Prompt Note, next up: "Cc1cc(N)ccc1S(=O)(=O)Nc1ccc(Cl)cc1"
### Response 0.00393

====

- Measurement context: in water, 298.15 K
Parameter solubility (mole fraction): see the listing below.
Give only the figure.

### Prompt Look up solubility (mole fraction) for this molecule: "Cc1cc(Cl)ccc1NS(=O)(=O)c1ccc(N)cc1"
### Response 1.61e-06

====

Parameter solubility (mole fraction): see the listing below.
- Measurement context: in n-octanol, 303.15 K
Give only the figure.

{"Test smiles": "Nc1ccc(S(=O)(=O)Nc2cc(Cl)ccc2Cl)cc1", "solubility (mole fraction)": 0.000529}

### Prompt Look up solubility (mole fraction) for this compound: "Nc1ccc(S(=O)(=O)Nc2ccc(Cl)c(Cl)c2)cc1"
### Response 0.000422

### Prompt Note, next up: "Nc1ccc(S(=O)(=O)Nc2ccc(Cl)cc2)c(Cl)c1"
### Response 0.00287

### Prompt Note, next up: "Cc1cc(N)ccc1S(=O)(=O)Nc1ccccc1Cl"
### Response 0.000143

### Prompt Note, next up: "Nc1ccc(S(=O)(=O)Nc2ccccc2Cl)c(Cl)c1"
### Response 9.37e-05

### Prompt Note, next up: "Nc1ccc(S(=O)(=O)Nc2ccc(Cl)cc2)cc1"
### Response 0.00145

====

- Measurement context: in n-octanol, 310.15 K
Parameter solubility (mole fraction): see the listing below.
Give only the figure.

{"Test smiles": "Cc1ccc(NS(=O)(=O)c2ccc(N)cc2)cc1Cl", "solubility (mole fraction)": 0.000801}

### Prompt Look up solubility (mole fraction) for this compound: "Cc1cc(N)ccc1S(=O)(=O)Nc1ccccc1Cl"
### Response 0.000192

### Prompt Note, next up: "Nc1ccc(S(=O)(=O)Nc2cc(Cl)ccc2Cl)cc1"
### Response 0.000667

### Prompt Note, next up: "Nc1ccc(S(=O)(=O)Nc2cc(Cl)c(Cl)cc2Cl)cc1"
### Response 0.00146
